Reference for the values: patent US7973075B2

MEASURED_TARGET: GluR6 (Rattus norvegicus)
Construct: expressed in transfected cells; HEK 293 (patch clamp)
Sequence (P42260 32-908): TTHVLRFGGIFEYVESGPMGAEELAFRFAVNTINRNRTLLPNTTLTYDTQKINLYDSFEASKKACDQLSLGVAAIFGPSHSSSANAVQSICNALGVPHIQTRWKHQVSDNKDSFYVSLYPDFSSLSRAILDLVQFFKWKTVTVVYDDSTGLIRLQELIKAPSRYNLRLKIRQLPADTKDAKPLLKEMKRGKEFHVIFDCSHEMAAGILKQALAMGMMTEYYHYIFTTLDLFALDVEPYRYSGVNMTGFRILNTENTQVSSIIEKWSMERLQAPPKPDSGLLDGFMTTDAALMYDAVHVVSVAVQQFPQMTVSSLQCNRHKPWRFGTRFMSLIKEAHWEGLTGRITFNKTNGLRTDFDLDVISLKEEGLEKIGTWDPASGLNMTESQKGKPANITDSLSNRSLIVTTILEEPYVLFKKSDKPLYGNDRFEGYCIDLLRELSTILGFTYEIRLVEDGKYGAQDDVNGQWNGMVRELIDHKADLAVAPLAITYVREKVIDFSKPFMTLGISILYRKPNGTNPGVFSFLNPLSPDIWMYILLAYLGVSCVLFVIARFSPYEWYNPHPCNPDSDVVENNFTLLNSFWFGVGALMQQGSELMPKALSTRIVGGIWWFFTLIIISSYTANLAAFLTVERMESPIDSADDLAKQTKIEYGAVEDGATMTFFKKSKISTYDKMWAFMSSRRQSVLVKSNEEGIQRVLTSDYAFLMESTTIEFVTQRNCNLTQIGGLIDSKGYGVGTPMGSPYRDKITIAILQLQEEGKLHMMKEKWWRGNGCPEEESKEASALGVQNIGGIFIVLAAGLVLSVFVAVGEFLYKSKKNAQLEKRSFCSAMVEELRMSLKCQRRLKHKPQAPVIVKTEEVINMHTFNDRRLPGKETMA
TEST_NAME: Radioligand displacement ([3H]kainate), Example 1
Format: binding
COND: Tables 1-2; read-out: GluR6 binding affinity (displacement of [3H]kainate)
pKi: −log10 of the molar value.
MEASURED_QUANTITY: pKi

Simply: NC(CC1(C(=O)O)CC2OCC(O)C(O)C2O1)C(=O)O (stereo not drawn) [8,9-epi-neoDH, 8,9-epi-neodysiherbaine] , GluR6 (Rattus norvegicus), pKi = < 4.00

# value of pKi, GluR6 (Rattus norvegicus), item NC(CC1(C(=O)O)CC2OCC(O)C(O)C2O1)C(=O)O (stereo not drawn) [8-epi-neoDH, 8-epi-neodysiherbaine] = 4.66

Record NC(CC1(C(=O)O)CC2OCC(O)C(O)C2O1)C(=O)O (stereo not drawn) [9-epi-neoDH, 9-epi-neodysiherbaine] / GluR6 (Rattus norvegicus), pKi recorded as < 4.00

Value sought: pKi, system GluR6 (Rattus norvegicus), item N[C@@H](C[C@]1(C(=O)O)C[C@H]2OCC[C@@H](O)[C@H]2O1)C(=O)O [9-deoxy-neoDH] . Result: < 4.00

====

MEASURED_TARGET: KA2 (Rattus norvegicus)
Construct: expressed in transfected cells; host or cells: HEK-293-T/17
Sequence (Q63273 15-979): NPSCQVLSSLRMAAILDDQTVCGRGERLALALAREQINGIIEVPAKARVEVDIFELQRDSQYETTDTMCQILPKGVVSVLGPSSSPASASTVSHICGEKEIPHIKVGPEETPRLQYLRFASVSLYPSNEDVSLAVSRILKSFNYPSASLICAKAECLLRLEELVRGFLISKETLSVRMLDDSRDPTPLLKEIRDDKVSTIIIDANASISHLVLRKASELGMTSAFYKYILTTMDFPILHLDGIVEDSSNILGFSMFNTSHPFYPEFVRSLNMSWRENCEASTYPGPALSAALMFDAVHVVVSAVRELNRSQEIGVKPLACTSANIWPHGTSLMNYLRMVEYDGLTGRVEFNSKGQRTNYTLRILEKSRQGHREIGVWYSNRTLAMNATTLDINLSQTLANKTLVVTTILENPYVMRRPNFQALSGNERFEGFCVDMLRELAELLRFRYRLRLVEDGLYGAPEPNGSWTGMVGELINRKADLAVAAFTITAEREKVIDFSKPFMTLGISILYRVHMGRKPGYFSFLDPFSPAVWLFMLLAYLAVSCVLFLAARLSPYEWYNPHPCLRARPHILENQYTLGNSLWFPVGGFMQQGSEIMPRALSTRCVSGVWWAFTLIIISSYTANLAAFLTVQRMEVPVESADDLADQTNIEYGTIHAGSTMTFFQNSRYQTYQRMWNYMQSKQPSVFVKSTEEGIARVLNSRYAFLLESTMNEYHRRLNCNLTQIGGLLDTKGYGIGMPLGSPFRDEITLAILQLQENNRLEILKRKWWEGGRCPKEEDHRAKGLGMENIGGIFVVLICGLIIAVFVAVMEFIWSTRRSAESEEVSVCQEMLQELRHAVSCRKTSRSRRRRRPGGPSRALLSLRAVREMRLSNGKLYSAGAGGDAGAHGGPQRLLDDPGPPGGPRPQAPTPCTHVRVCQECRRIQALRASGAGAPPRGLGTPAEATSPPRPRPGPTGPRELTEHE
TEST_NAME: Radioligand binding ([3H]kainate displacement), HEK-293-T/17 membranes, Example 2
COND: Ki KA2, [3H]kainate displacement; Cheng-Prusoff
MEASURED_QUANTITY: Ki (µM)
Supply the numeric figure in µM, leaving out any unit text.

Value of Ki reported for the compound N[C@@H](C[C@]1(C(=O)O)C[C@H]2OC[C@@H](O)C[C@H]2O1)C(=O)O is 20
